target: T1, SUMO-^25-109MDM2 (UniProt Q00987 25-109); assay: BLI, peptide on streptavidin sensors, global fit
T1 construct: range 25-109; Expressed in Rosetta (DE3) pLysS cells, MW=23 297 Da, used with the SUMO tag on; not shown: SUMO fusion tag (protein purified on Ni-NTA)
T1 sequence (Q00987 25-109): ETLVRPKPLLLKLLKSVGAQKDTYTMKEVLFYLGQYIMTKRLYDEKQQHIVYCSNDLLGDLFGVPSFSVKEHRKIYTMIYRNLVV
pKd: −log10 of the molar value. *1 amine or outer side, *2 acyl side, *3 side chain or, on linkers, in order; H or OH if unused. Bridges are numbered along the chain shown (N, C = ends). [ ]: non-standard residue; d: D form. The star is where a group is joined. Hexa = hexylalanine = (2S)-2-aminononanoic acid, CCCCCCC[C@H](N[*:1])C(=O)[*:2]; Biotin = O=C1N[C@H]2[C@H](CS[C@H]2CCCCC(=O)*)N1; R8 = C=CCCCCCC[C@@](C)(N)C(=O)O; F2f = difluoro-L-phenylalanine; Cba = N[C@@H](CC1CCC1)C(=O)O; S5 = C=CCCC[C@](C)(N)C(=O)O
# pKd per record follows
metric: pKd

- Biotin-LT[F2f]EHYWAQ[F2f]TSK-NH2 [peptide 25a]: 7.70
- Biotin-LT[F2f][R8]EY[Hexa]AQ[Cba][S5]SAA-NH2 (staple 4-11, Macrocyclic) [peptide 10a-M]: 8.30
- Biotin-LT[F2f]EHYWAQ[Hexa]TSK-NH2 [peptide 19a]: 8.10
